# subjectOfTest: hS1P1R (hEdg1) membrane protein (Homo sapiens, UniProt P21453)
# Sequence (P21453 whole entry): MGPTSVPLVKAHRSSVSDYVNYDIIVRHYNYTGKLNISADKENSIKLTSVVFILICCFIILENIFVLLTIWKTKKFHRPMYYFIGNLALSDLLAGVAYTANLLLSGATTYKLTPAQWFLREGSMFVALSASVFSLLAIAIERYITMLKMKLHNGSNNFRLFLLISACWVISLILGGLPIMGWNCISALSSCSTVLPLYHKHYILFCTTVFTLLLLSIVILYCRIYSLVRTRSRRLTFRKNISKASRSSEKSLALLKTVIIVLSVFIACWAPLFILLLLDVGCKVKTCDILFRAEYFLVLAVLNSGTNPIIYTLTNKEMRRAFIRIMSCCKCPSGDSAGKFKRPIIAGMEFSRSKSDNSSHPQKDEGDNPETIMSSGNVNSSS
# experimentSummary: hS1P1R GTPγS binding assay (Assay 3a)
pEC50: −log10 of the molar value.

>  <compound>
CCCOc1ccc(-c2nnc(-c3cc(F)c(OC[C@H](N)CO)cc3Cl)s2)cc1 [Entry 91]

>  <pEC50>
6.60 to 7.30

$$$$
>  <compound>
N[C@H](CO)COc1cc(Cl)c(-c2nnc(-c3cc(Cl)cc(Br)c3)s2)cc1F [Entry 23]

>  <pEC50>
5.55 to 6.60

$$$$
>  <compound>
CC(C)Oc1ccc(-c2nnc(-c3cc(F)c(OC[C@H](N)[C@H](C)O)cc3Cl)s2)cc1C#N [Entry 83]

>  <pEC50>
≥ 8.00

$$$$
>  <compound>
CC(C)Nc1ccc(-c2nnc(-c3cc(F)c(OC[C@@H](N)[C@H](C)O)cc3Cl)s2)cn1 [Entry 59]

>  <pEC50>
5.55 to 6.60

$$$$
>  <compound>
CC(C)Oc1ncc(-c2nnc(-c3cc(F)c(OC[C@H](N)CO)cc3Cl)s2)cc1Cl [Entry 20]

>  <pEC50>
6.60 to 7.30

$$$$
>  <compound>
Cc1cc(-c2nnc(-c3cc(F)c(OC[C@H](N)[C@H](C)O)cc3Cl)s2)cc(NC(C)C)n1 [Entry 63]

>  <pEC50>
≥ 8.00

$$$$
>  <compound>
Cc1cc(-c2nnc(-c3cc(F)c(OC[C@@H](N)[C@H](C)O)cc3Cl)s2)cnc1NC(C)C [Entry 96]

>  <pEC50>
5.55 to 6.60

$$$$
>  <compound>
CC(C)Oc1ccc(-c2nnc(-c3cc(F)c(OC[C@@H](N)CO)cc3Cl)s2)nc1Cl [Entry 33]

>  <pEC50>
7.30 to 8.00

$$$$
>  <compound>
Cc1cc(-c2nnc(-c3cc(F)c(OC[C@H](N)[C@H](C)OP(=O)(O)O)cc3Cl)s2)cc(NC(C)C)n1 [Entry 95]

>  <pEC50>
≥ 8.00

$$$$
>  <compound>
CC(C)Nc1ncc(-c2nnc(-c3cc(F)c(OC[C@H](N)CO)cc3Cl)s2)cn1 [Entry 89]

>  <pEC50>
6.60 to 7.30

$$$$
>  <compound>
CC(C)Oc1ccc(-c2nnc(-c3cc(F)c(OC[C@H](N)[C@H](C)OP(=O)(O)O)cc3Cl)s2)cc1Cl [Entry 69]

>  <pEC50>
≥ 8.00

$$$$
>  <compound>
CC(C)Oc1ccc(-c2nnc(-c3cc(F)c(OC[C@H](N)[C@@H](C)OP(=O)(O)O)cc3Cl)s2)cc1C#N [Entry 50]

>  <pEC50>
≥ 8.00

$$$$
>  <compound>
CC(C)N(C)c1cc(-c2nnc(-c3cc(F)c(OC[C@@H](N)CO)cc3Cl)s2)cc(Cl)n1 [Entry 31]

>  <pEC50>
6.60 to 7.30

$$$$
>  <compound>
CC(C)Cc1ccc(-c2nnc(-c3cc(F)c(OC[C@H](N)CO)cc3Cl)s2)cc1 [Entry 3]

>  <pEC50>
5.55 to 6.60

$$$$
>  <compound>
N#Cc1cc(-c2nnc(-c3cc(F)c(OC[C@H](N)CO)cc3Cl)s2)ccc1OC1COC1 [Entry 49]

>  <pEC50>
≥ 8.00

$$$$

Values from patent US20100249071A1
